Cited source for all entries: the METLIN SMRT retention time set (Domingo-Almenara et al. 2019)

Assay: gradient 5% acetonitrile 3 min, to 50% in 2 min, to 85% in 15 min, held 3 min, 100 µL/min
Settings: column: Zorbax Extend-C18 2.1 x 50 mm; eluents: water / acetonitrile, 0.1% formic acid
# binarize RP-LC retention time: threshold 800 s inclusive, high side T, low side F

Record excerpt, results attached:
> print(dat)
                                   molecule  label.class
1  Cn1cccc(C(=O)N2CCC3(CC2)OCCN3S(=O)(=O)c2ccccc2)c1=O            F
2  CCOc1ccccc1NC(=O)CSc1ncnc2c1nnn2-c1ccc(OC)cc1            T

stdin: Quick check, RP-LC retention time >= 800 s? CCCN(CCC)CCc1ccc(O)c(O)c1
stdout: F

stdin: And what about the molecule O=C(Cn1cccc1-c1nnc(C2CC2)o1)NCc1ccc(Cl)cc1 ?
stdout: T

stdin: And what about the molecule Cc1cc2c(=O)n(CC(=O)N3CCCc4ccccc43)c3cccnc3n2n1 ?
stdout: F

stdin: And what about the molecule CC(=O)N1CCC(C(=O)Nc2ccc(OCc3nnc(-c4ccc(Cl)cc4)o3)cc2)CC1 ?
stdout: F
